- Test target: Beta-secretase 1 (Homo sapiens)
- Method description: Inhibition of recombinant BACE1 (unknown origin) using H-Ile-Lys-Thr-Glu-Glu-Ile-Ser-Glu-Val-Asn-Leu-Asp-Ala-Glu-Phe-Arg-His-Asp-Ser-Gly-NH2 peptide as substrate measured after 90 mins by analytical HPLC analysis
pIC50: −log10 of the molar value.
Measured quantity: pIC50

Please review the entries below; each comes with its answer.
[
  {
    "Substance smiles": "CCC[C@@H]1NC(=O)[C@@H](NC(=O)[C@@H](N)CCC(=O)O)C(C)(C)OCCCC[C@@H]([C@H](O)CNc2ccc(CC(=O)O)cc2)NC1=O",
    "Measured quantity": "pIC50",
    "Number": 5.80
  },
  {
    "Substance smiles": "CCC[C@@H]1NC(=O)[C@@H](NC(=O)[C@@H](N)CCC(=O)O)CC/C=C\\CC[C@@H]([C@H](O)CNc2ccc(C)cc2)NC1=O",
    "Measured quantity": "pIC50",
    "Number": 2.85
  }
]

(1) CCC[C@@H]1NC(=O)[C@@H](NC(=O)[C@@H](N)CCC(=O)O)[C@@H](C)OCCCC[C@@H]([C@H](O)CNc2ccc(C)cc2)NC1=O
(2) CCC[C@H](NC(=O)[C@@H](NC(=O)[C@@H](N)CCC(=O)O)[C@@H](C)CC)C(=O)N[C@@H](CC(C)C)[C@H](O)CNc1ccc(C)cc1
(3) CCC[C@@H]1NC(=O)[C@@H](NC(=O)[C@@H](N)CCC(=O)O)C(C)(C)OC/C=C\C[C@@H]([C@H](O)CNc2ccc(CC(=O)O)cc2)NC1=O
Ordering: ascending pIC50. Answer by listing the labels in the requested order.
1, 2, 3

(1) CCC[C@@H]1NC(=O)[C@@H](NC(=O)[C@@H](N)CCC(=O)O)[C@@H](C)OC/C=C/C[C@@H]([C@H](O)CNc2ccc(C)cc2)NC1=O
(2) CCC[C@@H]1NC(=O)[C@@H](NC(=O)[C@@H](N)CCC(=O)O)[C@H](C)OCCCC[C@@H]([C@H](O)CNc2ccc(C)cc2)NC1=O
(3) CCC[C@@H]1NC(=O)[C@@H](NC(=O)[C@@H](N)CCC(=O)O)CC/C=C/CC[C@@H]([C@H](O)CNc2ccc(C)cc2)NC1=O
(4) CCC[C@@H]1NC(=O)[C@@H](NC(=O)[C@@H](N)CCC(=O)O)C(C)(C)OCCCC[C@@H]([C@H](O)CNc2ccc(C)cc2)NC1=O
Kindly order the items shown according to pIC50, from the highest value down. Answer by listing the labels in the requested order.
4, 2, 3, 1

----------
- Test target: Beta-secretase 1 (Homo sapiens)
- Method description: Inhibition of recombinant BACE1 (unknown origin) using H-Ile-Lys-Thr-Glu-Glu-Ile-Ser-Glu-Val-Asn-Leu-Asp-Ala-Glu-Phe-Arg-His-Asp-Ser-Gly-NH2 peptide as substrate measured after 90 mins by analytical HPLC analysis
Measured quantity: IC50 (µM)

(P) CCC[C@@H]1NC(=O)[C@@H](NC(=O)[C@@H](N)CCC(=O)O)[C@@H](C)OC/C=C\C[C@@H]([C@H](O)CNc2ccc(C)cc2)NC1=O
(Q) CCC[C@@H]1NC(=O)[C@@H](NC(=O)[C@@H](N)CCC(=O)O)C(C)(C)OC/C=C\C[C@@H]([C@H](O)CNc2ccc(C)cc2)NC1=O
(R) CCC[C@@H]1NC(=O)[C@@H](NC(=O)[C@@H](N)CCC(=O)O)CCCCCC[C@@H]([C@H](O)CNc2ccc(C)cc2)NC1=O
(S) CCC[C@@H]1NC(=O)[C@@H](NC(=O)[C@@H](N)CCC(=O)O)[C@H](C)OC/C=C\C[C@@H]([C@H](O)CNc2ccc(C)cc2)NC1=O
Order the 4 compounds from highest to lowest IC50. Answer by listing the labels in the requested order.
R, P, S, Q
(R: 780 µM, P: 117 µM, S: 11.7 µM, Q: 3.9 µM)

----------
- Test target: Beta-secretase 1 (Homo sapiens, UniProt P56817)
- Sequence (P56817 whole entry): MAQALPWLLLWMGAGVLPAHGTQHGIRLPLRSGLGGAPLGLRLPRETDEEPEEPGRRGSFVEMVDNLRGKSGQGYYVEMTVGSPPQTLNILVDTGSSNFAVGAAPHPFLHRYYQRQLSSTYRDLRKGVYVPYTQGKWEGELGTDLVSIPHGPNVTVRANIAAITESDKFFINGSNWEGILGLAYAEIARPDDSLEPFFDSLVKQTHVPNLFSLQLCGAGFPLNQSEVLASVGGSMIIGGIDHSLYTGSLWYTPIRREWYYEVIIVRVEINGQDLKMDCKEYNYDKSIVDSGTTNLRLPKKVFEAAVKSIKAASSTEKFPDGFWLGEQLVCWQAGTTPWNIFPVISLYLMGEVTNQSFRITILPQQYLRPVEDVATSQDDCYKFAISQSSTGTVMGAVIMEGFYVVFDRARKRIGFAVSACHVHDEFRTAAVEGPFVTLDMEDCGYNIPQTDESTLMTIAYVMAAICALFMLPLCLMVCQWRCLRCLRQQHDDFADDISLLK
- Method description: Inhibition of recombinant BACE1 (unknown origin) using H-Ile-Lys-Thr-Glu-Glu-Ile-Ser-Glu-Val-Asn-Leu-Asp-Ala-Glu-Phe-Arg-His-Asp-Ser-Gly-NH2 peptide as substrate measured after 90 mins by analytical HPLC analysis
pIC50: −log10 of the molar value.
Measured quantity: pIC50

[
  {
    "Substance smiles": "CCC[C@@H]1NC(=O)[C@@H](NC(=O)[C@@H](N)CCC(=O)O)C/C=C\\CC[C@@H]([C@H](O)CNc2ccc(C)cc2)NC1=O",
    "Test target": "Beta-secretase 1 (Homo sapiens, UniProt P56817)",
    "pIC50": 2.98
  },
  {
    "Substance smiles": "CCC[C@@H]1NC(=O)[C@@H](NC(=O)[C@@H](N)CCC(=O)O)CCCCC[C@@H]([C@H](O)CNc2ccc(C)cc2)NC1=O",
    "Test target": "Beta-secretase 1 (Homo sapiens, UniProt P56817)",
    "pIC50": 2.85
  }
]

----------
- Test target: Beta-secretase 1 (Homo sapiens)
- Method description: Inhibition of recombinant BACE1 (unknown origin) using H-Ile-Lys-Thr-Glu-Glu-Ile-Ser-Glu-Val-Asn-Leu-Asp-Ala-Glu-Phe-Arg-His-Asp-Ser-Gly-NH2 peptide as substrate measured after 90 mins by analytical HPLC analysis
pIC50: −log10 of the molar value.
Measured quantity: pIC50

Please review the entries below; each comes with its answer.
[
  {
    "Substance smiles": "CCC[C@@H]1NC(=O)[C@@H](NC(=O)[C@@H](N)CCC(=O)O)COC/C=C\\CC[C@@H]([C@H](O)CNc2ccc(C)cc2)NC1=O",
    "Test target": "Beta-secretase 1 (Homo sapiens)",
    "pIC50": "< 2.82"
  },
  {
    "Substance smiles": "CCC[C@@H]1NC(=O)[C@@H](NC(=O)[C@@H](N)CCC(=O)O)C/C=C/CC[C@@H]([C@H](O)CNc2ccc(C)cc2)NC1=O",
    "Test target": "Beta-secretase 1 (Homo sapiens)",
    "pIC50": "< 2.82"
  }
]

Note down pIC50 recorded for CCC[C@@H]1NC(=O)[C@@H](NC(=O)[C@@H](N)CCC(=O)O)COCCCCC[C@@H]([C@H](O)CNc2ccc(C)cc2)NC1=O
< 2.82
